The measurements presented in this section are drawn from ChEMBL document CHEMBL3244318.

System: Cavia porcellus
Assay: Bronchodilatory activity in iv dosed Hartley guinea pig assessed as inhibition of histamine-induced constriction compound of total 3 to 4 doses at 15 mins interval starting first dose 2 mins post challenge
Type: functional
Conditions: Cavia porcellus, Hartley, iv; read-out: ED50
Note to self: use label 1 only for ED50 readings below 0.03 mg/kg; a reading exactly at 0.03 mg/kg still gets label 0.

[
  {
    "compound": "CCCCC1([C@@H](O)/C=C/C2CCC(=O)[C@@H]2CCCCSCC(=O)OCC)CCC1 (mixture of isomers)",
    "category": "label 0"
  },
  {
    "compound": "CCCCC1([C@H](O)/C=C/C2CCC(=O)[C@@H]2C/C=C\\CCCC(=O)O)CCC1 (mixture of isomers)",
    "category": "label 1"
  },
  {
    "compound": "CCCCC1([C@@H](O)/C=C/C2CCC(=O)[C@@H]2CCCCCCC(=O)OCC)CCC1 (mixture of isomers)",
    "category": "label 0"
  },
  {
    "compound": "CCCCC1([C@@H](O)/C=C/C2CCC(=O)[C@@H]2CCCCCCC(=O)O)CCC1 (mixture of isomers)",
    "category": "label 1"
  },
  {
    "compound": "CCCCC1([C@H](O)/C=C/C2CCC(=O)[C@@H]2CCCCCCC(=O)OCC)CCC1 (mixture of isomers)",
    "category": "label 1"
  },
  {
    "compound": "CCCCC1([C@H](O)/C=C/C2CCC(=O)[C@@H]2C/C=C\\CCCC(=O)OCC)CCC1 (mixture of isomers)",
    "category": "label 0"
  },
  {
    "compound": "CCCCC1([C@H](O)/C=C/C2CCC(=O)[C@@H]2CCCCCCC(=O)O)CCC1 (mixture of isomers)",
    "category": "label 1"
  },
  {
    "compound": "CCCCC1([C@H](O)/C=C/C2CCC(=O)[C@@H]2CCCCSCC(=O)O)CCC1 (mixture of isomers)",
    "category": "label 0"
  }
]

// next entry
Qu. Is it true that ED50 reported for CCCCC[C@H](O)/C=C/[C@H]1[C@H](O)CC(=O)[C@@H]1CCCCCCC(=O)O is less than 0.03 mg/kg?
Ans. label 1

---

Test system: Cavia porcellus
Assay: Bronchodilatory activity in iv dosed Hartley guinea pig assessed as inhibition of acetylcholine-induced constriction compound of total 3 to 4 doses at 15 mins interval starting first dose 2 mins post challenge
Assay type: functional
Details: Cavia porcellus, Hartley, iv; read-out: ED50
Measured ED50 determines class: A (below 0.002 mg/kg), B (0.002 mg/kg to below 0.03 mg/kg), C (0.03 mg/kg or more)

Illustrative cases are given below, each with its answer.
[
  {
    "compound": "CCCCC1([C@@H](O)/C=C/C2CCC(=O)[C@@H]2CCCCCCC(=O)OCC)CCC1 (mixture of isomers)",
    "category": "B"
  },
  {
    "compound": "CCCCC1([C@H](O)/C=C/C2[C@H](O)CC(=O)[C@@H]2CCCCCCC(=O)O)CCC1 (mixture of isomers)",
    "category": "A"
  },
  {
    "compound": "CCCCC1([C@H](O)/C=C/C2[C@H](O)CC(=O)[C@@H]2C/C=C\\CCCC(=O)O)CCC1 (mixture of isomers)",
    "category": "A"
  },
  {
    "compound": "CCCCC1([C@H](O)/C=C/C2CCC(=O)[C@@H]2CCCCSCC(=O)OCC)CCC1 (mixture of isomers)",
    "category": "C"
  }
]

Qu. Consider CCCCC1([C@@H](O)/C=C/C2[C@H](O)CC(=O)[C@@H]2C/C=C\CCCC(=O)O)CCC1 (mixture of isomers) . To which ED50 class does it belong?
Ans. C

Qu. Quick one: CCCCC1([C@H](O)/C=C/C2CCC(=O)[C@@H]2CCCCCC(=O)O)CCC1 (mixture of isomers)
Ans. C

Qu. Quick one: CCCC1([C@H](O)/C=C/C2[C@H](O)CC(=O)[C@@H]2C/C=C\CCCC(=O)O)CCC1 (mixture of isomers)
Ans. B

Qu. Quick one: CCCCC1([C@H](O)/C=C/C2CCC(=O)[C@@H]2C/C=C\CCCC(=O)O)CCC1 (mixture of isomers)
Ans. B

---

Provide the reported inhibition in vivo at 3.2 mg/kg of each item.
System: Cavia porcellus
Assay: Bronchodilatory activity in iv dosed Hartley guinea pig assessed as inhibition of acetylcholine-induced constriction at 3.2 mg/kg, iv of total 3 to 4 doses at 15 mins interval starting 2 mins post challenge
Format: functional

[
  {
    "compound": "CCCCC1([C@H](O)/C=C/C2CCC(=O)[C@@H]2CCCCC(C)(C)CC(=O)O)CCC1 (mixture of isomers)",
    "inhibition in vivo at 3.2 mg/kg": "< 50%"
  }
]

Give measured inhibition in vivo at 3.2 mg/kg for every item shown.
1. CCCCC1([C@@H](O)/C=C/C2CCC(=O)[C@@H]2C/C=C\CCCC(=O)OCC)CCC1 (mixture of isomers)
2. CCCCC1([C@H](O)/C=C/C2CCC(=O)[C@@H]2CCCCCCCCC(=O)OCC)CCC1 (mixture of isomers)
3. CCCCC1([C@H](O)/C=C/C2CCC(=O)[C@@H]2CCCCCC(=O)OCC)CCC1 (mixture of isomers)

Ans.
< 50%
< 50%
< 50%

Qu. // map CCCCC1([C@@H](O)/C=C/C2CCC(=O)[C@@H]2CCCCC(C)(C)CC(=O)O)CCC1 (mixture of isomers) to recorded inhibition in vivo at 3.2 mg/kg (system: Cavia porcellus)
Ans. < 50%

---

Provide the reported ED50 of each item.
System: Cavia porcellus
Assay: Bronchodilatory activity in iv dosed Hartley guinea pig assessed as inhibition of histamine-induced constriction compound of total 3 to 4 doses at 15 mins interval starting first dose 2 mins post challenge
Format: functional
Conditions: Cavia porcellus, Hartley, iv; read-out: ED50
Answers are plain numbers, in mg/kg.

Examples with their reported ED50 follow.
[
  {
    "molecule": "CCCCC1([C@@H](O)/C=C/C2[C@H](O)CC(=O)[C@@H]2C/C=C\\CCCC(=O)O)CCC1 (mixture of isomers)",
    "ED50 / mg/kg": 0.0484
  },
  {
    "molecule": "CCCCC1([C@H](O)/C=C/C2CCC(=O)[C@@H]2CCCCCCCCC(=O)OCC)CCC1 (mixture of isomers)",
    "ED50 / mg/kg": 6.21
  },
  {
    "molecule": "CCCCC1([C@@H](O)/C=C/C2[C@H](O)CC(=O)[C@@H]2CCCCCCC(=O)O)CCC1 (mixture of isomers)",
    "ED50 / mg/kg": 0.017
  },
  {
    "molecule": "CCCCC1([C@H](O)/C=C/C2CCC(=O)[C@@H]2CCCCCC(=O)O)CCC1 (mixture of isomers)",
    "ED50 / mg/kg": 0.032
  }
]

Give measured ED50 for every item shown.
1. CCCC1([C@@H](O)/C=C/C2[C@H](O)CC(=O)[C@@H]2C/C=C\CCCC(=O)O)CCC1 (mixture of isomers)
2. CCCCC1([C@H](O)/C=C/C2CCC(=O)[C@@H]2CCCCSCC(=O)OCC)CCC1 (mixture of isomers)
3. CCCCC1([C@@H](O)/C=C/C2CCC(=O)[C@@H]2CCCCSCC(=O)O)CCC1 (mixture of isomers)
4. CCCCC1([C@H](O)/C=C/C2[C@H](O)CC(=O)[C@@H]2C/C=C\CCCC(=O)O)CCC1 (mixture of isomers)

Ans.
0.0467
0.03
0.606
0.00154
